koff values for the binders below.
Biological target: T1, chimeric construct (CHIM) (human)
T1 construct: CEACAM6 AA 1-273 joined to the membrane-peripheral region containing domain B3 of CEA (AA 596-687), C-terminal 6xHis; also called chimeric CEA
T1 chain: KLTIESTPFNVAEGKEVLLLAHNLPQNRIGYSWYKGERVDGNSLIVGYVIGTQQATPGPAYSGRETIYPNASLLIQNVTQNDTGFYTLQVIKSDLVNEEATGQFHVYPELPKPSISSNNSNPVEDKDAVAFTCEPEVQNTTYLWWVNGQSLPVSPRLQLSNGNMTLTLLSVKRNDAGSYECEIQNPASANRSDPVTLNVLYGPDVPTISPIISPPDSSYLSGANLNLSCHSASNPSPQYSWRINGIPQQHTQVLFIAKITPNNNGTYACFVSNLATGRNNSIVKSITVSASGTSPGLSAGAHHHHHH
Test: SPR; binding to CHIM
MEASURED_ENDPOINT: koff (s⁻¹)

1. BGA2107 (antibody, human IgG1, V domains shown, Built on the BGA7592-1F-ph-M (BGA2433) template; human IgG1/kappa) VH: QVQLVQSGAEVKKPGASVKVSCKASGYIFTSYWLHWVRQAPGQGLEWIGYINPNTGYTSYAQKFQGRVTMTRDTSTSTVYMELSSLRSEDTAVYYCAREYGNYNYPLDYWGQGTLVTVSS VL: DIQMTQSPSSLSASVGDRVTITCRASENQYGYLAWYQQKPGKVPKLLIYNTKNLVEGVPSRFSGSGSGTDFTLTISSLQPEDVATYYCQHHLGTPYTFGQGTKVEIK | 0.00038
2. BGA8179 (antibody, human IgG1, V domains shown, Built on the BGA7592-1F-ph-M (BGA2433) template; human IgG1/kappa) VH: QVQLVQSGAEVKKPGASVKVSCKASGYIFTSYYLHWVRQAPGQGLEWIGYINPQTGYTSYAQKFQGRVTMTRDTSTSTVYMELSSLRSEDTAVYYCAREYGNYNYPLDYWGQGTLVTVSS VL: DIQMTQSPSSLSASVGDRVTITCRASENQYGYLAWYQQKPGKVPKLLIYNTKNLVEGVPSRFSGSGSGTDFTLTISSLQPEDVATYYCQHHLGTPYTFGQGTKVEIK | 0.000282
3. BGA0089 (antibody, human IgG1, V domains shown, Built on the BGA7592-1F-ph-M (BGA2433) template; human IgG1/kappa) VH: QVQLVQSGAEVKKPGASVKVSCKASGYIFTSYWLHWVRQAPGQGLEWIGYINPQTGYTNYAQKFQGRVTMTRDTSTSTVYMELSSLRSEDTAVYYCAREYGNYNYPLDYWGQGTLVTVSS VL: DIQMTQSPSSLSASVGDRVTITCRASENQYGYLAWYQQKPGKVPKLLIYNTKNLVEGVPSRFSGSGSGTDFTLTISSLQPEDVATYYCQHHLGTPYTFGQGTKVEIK | 0.000394
4. BGA7592-1F-ph-M (antibody, human IgG1, V domains shown, human IgG1/kappa; also called BGA2433) VH: QVQLVQSGAEVKKPGASVKVSCKASGYIFTSYWLHWVRQAPGQGLEWIGYINPQTGYTSYAQKFQGRVTMTRDTSTSTVYMELSSLRSEDTAVYYCAREYGNYNYPLDYWGQGTLVTVSS VL: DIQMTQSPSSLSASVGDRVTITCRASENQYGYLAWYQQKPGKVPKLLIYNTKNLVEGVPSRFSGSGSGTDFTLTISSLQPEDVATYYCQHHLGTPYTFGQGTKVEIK | 0.000248
